Target: T1, Ala mutant SEQ ID NO: 33 (human)
T1 sequence (peptide): EENMDDAWMQDEMEIGY
Experiment: ELISA, peptide on plate (10 ug/mL)
PARAMETER: absorbance 490 nm/630 nm (OD)
Kindly answer with a numeric value in OD, unit omitted.

Below, 2 binders whose answers are already recorded.
A11 (antibody, IgG1, V domains shown) VH: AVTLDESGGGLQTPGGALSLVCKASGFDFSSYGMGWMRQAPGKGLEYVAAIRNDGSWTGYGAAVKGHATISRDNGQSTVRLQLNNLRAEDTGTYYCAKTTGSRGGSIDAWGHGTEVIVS VL: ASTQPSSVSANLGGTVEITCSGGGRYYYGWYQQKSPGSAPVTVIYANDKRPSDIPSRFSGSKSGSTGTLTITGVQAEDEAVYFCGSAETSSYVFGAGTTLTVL = 2.09
E9 (antibody, IgG1, V domains shown) VH: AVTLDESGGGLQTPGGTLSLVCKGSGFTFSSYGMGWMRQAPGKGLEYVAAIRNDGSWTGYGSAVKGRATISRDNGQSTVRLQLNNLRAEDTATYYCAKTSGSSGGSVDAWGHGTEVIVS VL: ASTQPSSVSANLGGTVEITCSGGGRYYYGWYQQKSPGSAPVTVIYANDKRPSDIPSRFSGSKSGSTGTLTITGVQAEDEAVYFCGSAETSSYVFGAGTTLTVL = 1.93

Could you now consider this next binder?
Problem: # return recorded absorbance 490 nm/630 nm for input G8 (antibody, IgG1, V domains shown) VH: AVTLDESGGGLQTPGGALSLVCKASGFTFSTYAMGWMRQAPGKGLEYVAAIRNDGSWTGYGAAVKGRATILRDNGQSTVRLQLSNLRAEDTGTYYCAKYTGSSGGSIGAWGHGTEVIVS VL: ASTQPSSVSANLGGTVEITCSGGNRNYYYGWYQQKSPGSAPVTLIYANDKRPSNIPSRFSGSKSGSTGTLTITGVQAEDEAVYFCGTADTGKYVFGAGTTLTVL
Result: 1.98
